Below is a list of entries, each paired with its recorded Solubility in water value.
- PROTOCOL_TEXT: Solubility in water
- Format: physicochemical

Consider the following illustrative entries.
* COCC(O)COCC(C)(CN)CN.[Cl][Pt][Cl] (stereo not shown) | 16 mg/mL
* CC(CN)(CN)COCC(O)CO.[Cl][Pt][Cl] (stereo not shown) | 25 mg/mL
* CC(CN)(CN)CO[C@@H]1CC[C@H](O)[C@@H](CO)O1.[Cl][Pt][Cl] | 17 mg/mL
* COCC(C)(CN)CN.O=C([O-])C1(C(=O)[O-])CCC1.[Pt+2] | 15 mg/mL
* CCC(CN)(CN)COC.O=C([O-])C1(C(=O)[O-])CCC1.[Pt+2] | 70 mg/mL
* COCC(C)(CN)CN.[Cl][Pt][Cl] | 3 mg/mL

QUERY: So what's the measured Solubility in water for this one? CC(=O)NC1(CO)C[NH][Pt]([Cl])([Cl])[NH]C1
RESULT: 10 mg/mL

###

Below is a list of entries, each paired with its recorded log10 of LD50 value.
- Tested on: NMRI mice
- PROTOCOL_TEXT: Determination of the acute toxicity
- Assay type: in vivo, mouse
- RECORDED_CONDITIONS: 1 × i.p., survival on day 14
- Procedure: b) Determination of the acute toxicity In order to determine the acute toxicity, NMRI mice are injected intraperitoneally on day 0 with various doses of a test substance, dissolved in 0.5 ml of 5% glucose solution. Control groups receive only 0.5 ml of 5% strength glucose solution. 5 mice are used per concentration of the test substance. On day 14, the number of surviving mice is determined, and the LD5, LD50 and LD95 are determined from this according to the Lichtfield Wilcoxon method.
For clarity, the numbers are log10 values of LD50 expressed in mg/kg.

* COCC(O)COCC(C)(CN)CN.[Cl][Pt][Cl] (stereo not shown) | 1.76

QUERY: Observed log10 of LD50 on NMRI mice for CCC(CN)(CN)COC.[Cl][Pt][Cl] , please.
RESULT: 1.28

QUERY: Likewise for CCC(CN)(CN)COC.O=C([O-])C1(C(=O)[O-])CCC1.[Pt+2] ?
RESULT: 2.64

QUERY: Likewise for COCC(C)(CN)CN.O=C([O-])C1(C(=O)[O-])CCC1.[Pt+2] ?
RESULT: 2.40

QUERY: Likewise for CC(CN)(CN)COCC(O)CO.[Cl][Pt][Cl] (stereo not shown) ?
RESULT: 1.76
